# protein stability index listing for each entry below
method.notes: protein stability index of a GFP-peptide fusion (GPS, HEK-293T) (PSI 1-6); higher = more stable;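 further: 24-mer peptide tiles fused after GFP, lentivirally expressed, FACS-sorted into six equal bins by GFP/DsRed ratio, decoded by Illumina sequencing, PSI is the read-weighted mean bin number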
condition.parameters: treatment: DMSO; c terminus: a fixed tail appended
measured.metric: protein stability index

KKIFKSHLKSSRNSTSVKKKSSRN [P2RY14] = 3.87
LPHGVNFQDAIFPDTQENRRMFSS [CCDC3] = 3.91
AGADLKERAKMSSSEVGPFVSKIR [AUH] = 3.21
RNSLSAIFNNVMTLCAMLPLLLFT [SLC29A1] = 3.3
EEGFMTAELAGVIKRLWKDSGVQA [GNAI1] = 3.19
RLKEYTIKSHSSLPPNNSYADFER [DAPK3] = 3.58
VKNSNRYDVEMTDELVGLPFSSHT [FBXO34] = 3.8
